- system.name: UniProt:P51955
- Sequence (P51955 whole entry): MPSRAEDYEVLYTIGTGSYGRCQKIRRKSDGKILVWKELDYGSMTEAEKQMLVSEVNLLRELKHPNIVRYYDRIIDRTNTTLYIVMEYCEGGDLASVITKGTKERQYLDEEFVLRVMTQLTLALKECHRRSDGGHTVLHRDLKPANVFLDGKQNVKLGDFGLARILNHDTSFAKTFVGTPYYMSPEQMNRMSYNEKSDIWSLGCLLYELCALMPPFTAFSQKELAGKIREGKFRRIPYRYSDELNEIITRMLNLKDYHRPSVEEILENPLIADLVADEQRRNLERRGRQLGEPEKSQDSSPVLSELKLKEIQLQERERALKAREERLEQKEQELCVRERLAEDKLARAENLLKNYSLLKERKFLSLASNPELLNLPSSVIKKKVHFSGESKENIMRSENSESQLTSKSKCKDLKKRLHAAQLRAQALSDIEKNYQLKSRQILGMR
- procedure.text: Kinase panel profiling at 1 µmol/L (MSA or IMAP), percentage inhibition
- Assay type: biochemical
- measurement.setup: NEK2; 1 µmol/L single concentration; read-out: %-inhibition, NEK2
experimental.readout: inhibition at 1 µM (%)
Return type: number; implicit unit %.

Here are 6 compounds together with their reported answers.
smiles: C[C@H]1Oc2cc(cnc2N)-c2c(nn(C)c2C#N)CN(C)C(=O)c2ccc(F)cc21
system.name: UniProt:P51955
val: 10

smiles: O=C(Nc1cnn2ccc(N3CCC[C@@H]3c3cc(F)ccc3F)nc12)N1CC[C@H](O)C1
system.name: UniProt:P51955
val: -0.367

smiles: FC(F)(F)c1ccc(CNc2ccc(Cc3c[nH]c4ncc(Cl)cc34)cn2)cn1
system.name: UniProt:P51955
val: -0.918

smiles: CCN1CCN(c2ccc(Nc3cc(N(C)C(=O)Nc4c(Cl)c(OC)cc(OC)c4Cl)ncn3)cc2)CC1
system.name: UniProt:P51955
val: 27

smiles: COc1ccc(CN2C3CC2CN(c2ccc(-c4cc(OCC(C)(C)O)cn5ncc(C#N)c45)cn2)C3)cn1
system.name: UniProt:P51955
val: 2

smiles: Cc1nc(NC(=O)N2CCC[C@H]2C(N)=O)sc1-c1ccnc(C(C)(C)C(F)(F)F)c1
system.name: UniProt:P51955
val: 7.4

// next entry
[ask] Which inhibition at 1 µM is listed for CO[C@]1(C(=O)N[C@@H](C)c2ccc(-n3cc(F)cn3)nc2)CC[C@H](c2nc(C)cc(Nc3cc(C)[nH]n3)n2)CC1 ?
[reply] 7.4

---

- System: 134 cancer cell lines
- procedure.text: Cell viability assay (ATPlite, 72 hours), IC50 on cancer cell line panel
- measurement.setup: Homo sapiens, SNU-C2B, read-out: IC50 in cell proliferation assay, cell line SNU-C2B (EGFR p.R165Q)
Reported pIC50 by item:
Please treat pIC50 as minus the base-10 logarithm of the molar concentration.

Known pIC50 results, listed for orientation:
smiles: CO[C@]1(C(=O)N[C@@H](C)c2ccc(-n3cc(F)cn3)nc2)CC[C@H](c2nc(C)cc(Nc3cc(C)[nH]n3)n2)CC1
pIC50: 4.71

smiles: CN1CCN(c2ccc(C(=O)Nc3n[nH]c4ccc(Cc5cc(F)cc(F)c5)cc34)c(NC3CCOCC3)c2)CC1
pIC50: 5.09

smiles: Cc1nc(NC(=O)N2CCC[C@H]2C(N)=O)sc1-c1ccnc(C(C)(C)C(F)(F)F)c1
pIC50: 5.15

Pending compound:
[ask] What measured pIC50 is associated with CC(=O)Nc1cccc(-n2c(=O)n(C3CC3)c(=O)c3c(Nc4ccc(I)cc4F)n(C)c(=O)c(C)c32)c1 on 134 cancer cell lines?
[reply] 7.39

---

- system.name: panel of 255 wild-type kinases (Homo sapiens, UniProt P00533)
- Sequence (P00533 25-1210): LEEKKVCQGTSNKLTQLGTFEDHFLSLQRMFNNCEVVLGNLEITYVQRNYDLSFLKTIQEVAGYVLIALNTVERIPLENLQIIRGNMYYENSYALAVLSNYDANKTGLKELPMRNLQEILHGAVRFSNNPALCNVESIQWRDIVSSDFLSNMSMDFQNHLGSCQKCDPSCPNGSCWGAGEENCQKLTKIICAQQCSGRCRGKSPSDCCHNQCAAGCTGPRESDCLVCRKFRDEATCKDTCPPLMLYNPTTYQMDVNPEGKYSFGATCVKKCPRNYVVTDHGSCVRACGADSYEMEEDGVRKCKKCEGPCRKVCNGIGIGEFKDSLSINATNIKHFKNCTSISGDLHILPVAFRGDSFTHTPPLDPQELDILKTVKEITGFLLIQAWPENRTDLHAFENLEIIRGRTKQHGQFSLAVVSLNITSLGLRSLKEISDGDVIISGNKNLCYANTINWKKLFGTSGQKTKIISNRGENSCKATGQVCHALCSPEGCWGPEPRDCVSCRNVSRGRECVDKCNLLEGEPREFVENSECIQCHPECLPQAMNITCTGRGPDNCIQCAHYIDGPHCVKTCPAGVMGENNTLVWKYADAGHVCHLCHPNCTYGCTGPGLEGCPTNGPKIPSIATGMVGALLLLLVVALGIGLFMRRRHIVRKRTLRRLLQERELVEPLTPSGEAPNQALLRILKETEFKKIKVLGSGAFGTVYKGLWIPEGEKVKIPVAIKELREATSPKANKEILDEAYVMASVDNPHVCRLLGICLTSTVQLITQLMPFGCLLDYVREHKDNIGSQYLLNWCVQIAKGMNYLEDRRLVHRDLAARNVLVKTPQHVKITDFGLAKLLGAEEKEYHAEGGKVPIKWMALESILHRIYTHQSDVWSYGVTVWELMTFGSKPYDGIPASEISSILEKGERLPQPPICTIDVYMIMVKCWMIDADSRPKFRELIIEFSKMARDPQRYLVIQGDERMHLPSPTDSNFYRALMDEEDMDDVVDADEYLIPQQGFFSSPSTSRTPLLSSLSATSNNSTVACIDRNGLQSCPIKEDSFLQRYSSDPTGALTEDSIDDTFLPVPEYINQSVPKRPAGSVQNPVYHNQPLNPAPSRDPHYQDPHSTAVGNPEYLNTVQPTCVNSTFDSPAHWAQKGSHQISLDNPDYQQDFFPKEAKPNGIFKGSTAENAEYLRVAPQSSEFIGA
- procedure.text: Kinase panel profiling at 1 µmol/L (MSA or IMAP), percentage inhibition
- Type: biochemical
- measurement.setup: kinase EGFR; 1 µmol/L single concentration; read-out: %-inhibition at 1 µmol/L, EGFR
Kind request: treat 9% as inclusive, so inhibition at 1 µM at 9% or higher is rule met, anything lower is rule not met.

A selection of reference data follows.
molecule: CCc1nc(C(N)=O)c(Nc2ccc(N3CCC(N4CCN(C)CC4)CC3)c(OC)c2)nc1NC1CCOCC1 [gilteritinib]
group: rule met

molecule: COc1ccc(CN2C3CC2CN(c2ccc(-c4cc(OCC(C)(C)O)cn5ncc(C#N)c45)cn2)C3)cn1 [selpercatinib]
group: rule not met

molecule: Cc1nc(NC(=O)N2CCC[C@H]2C(N)=O)sc1-c1ccnc(C(C)(C)C(F)(F)F)c1 [alpelisib]
group: rule not met

Shift focus to the following entry.
[ask] Test whether the molecule C=CC(=O)N1CCC([C@@H]2CCNc3c(C(N)=O)c(-c4ccc(Oc5ccccc5)cc4)nn32)CC1 [zanubrutinib] records inhibition at 1 µM of 9% or higher.
[reply] rule met
